System: PBMC
Experiment: Induction of TNFalpha release in human PBMC at 40 ug/mL after 48 hrs by ELISA
Type: functional
attributeMeasured: Activity (pg/mL)
Return type: number; implicit unit pg/mL.

>  <compound>
O=C(NCCOCCO)c1ccc2c(c1)C(=O)c1ccccc1-2

>  <attributeMeasured>
Activity

>  <displayUnit>
pg/mL

>  <val>
48

$$$$
>  <compound>
O=C(NCCOCCO[C@@H]1O[C@H](CO)[C@@H](O)[C@H](O)[C@H]1O)c1ccc2c(c1)C(=O)c1ccccc1-2

>  <attributeMeasured>
Activity

>  <displayUnit>
pg/mL

>  <val>
39

$$$$
>  <compound>
O=C(OCCCCO[C@@H]1O[C@H](CO)[C@@H](O)[C@H](O)[C@H]1O)c1cccc2c1-c1ccccc1C2=O

>  <attributeMeasured>
Activity

>  <displayUnit>
pg/mL

>  <val>
30

$$$$
>  <compound>
O=C(NCCOCCO[C@H]1O[C@H](CO)[C@@H](O)[C@H](O)[C@H]1O)c1ccc2c(c1)C(=O)c1ccccc1-2

>  <attributeMeasured>
Activity

>  <displayUnit>
pg/mL

>  <val>
30

$$$$

// Activity lookup, compound = O=C(NCCOCCO[C@@H]1O[C@H](CO)[C@@H](O[C@H]2O[C@H](CO)[C@@H](O)[C@H](O)[C@H]2O)[C@H](O)[C@H]1O)c1ccc2c(c1)C(=O)c1ccccc1-2 , result: 27

// Activity lookup, compound = O=C(NCCO)c1ccc2c(c1)C(=O)c1ccccc1-2 , result: 36

###

Reported Activity values are given for each entry in this list.
System: PBMC
Assay: Cytotoxicity against human PBMC at 60 ug/mL after 48 hrs by MTT assay
Assay type: cell-based
Return type: number; implicit unit %.

// Activity lookup, compound = O=C(NCCO)c1ccc2c(c1)C(=O)c1ccccc1-2 , result: 2

// Activity lookup, compound = O=C(OCCCCO[C@@H]1O[C@H](CO)[C@@H](O)[C@H](O)[C@H]1O)c1cccc2c1-c1ccccc1C2=O , result: 7

// Activity lookup, compound = O=C(OCCO)c1cccc2c1-c1ccccc1C2=O , result: 14

// Activity lookup, compound = O=C(NCCOCCOC1O[C@H](COC2O[C@H](CO)[C@@H](O)[C@H](O)[C@H]2O)[C@@H](O)[C@H](O)[C@H]1O)c1ccc2c(c1)C(=O)c1ccccc1-2 (single isomer, unassigned) , result: 21

// Activity lookup, compound = O=C(OCCCCO[C@H]1O[C@H](CO)[C@@H](O)[C@H](O)[C@H]1O)c1cccc2c1-c1ccccc1C2=O , result: 57

// Activity lookup, compound = O=C(OCCCO)c1cccc2c1-c1ccccc1C2=O , result: 41

###

Test system: PBMC
Assay: Cytotoxicity against human PBMC at 40 ug/mL after 48 hrs by MTT assay
Assay type: cell-based
Reported Activity values are given for each entry in this list.
Return type: number; implicit unit %.

The observed Activity for O=C(NCCO)c1ccc2c(c1)C(=O)c1ccccc1-2 when tested with PBMC stands at 0

The observed Activity for O=C(NCCOCCOC1O[C@H](COC2O[C@H](CO)[C@@H](O)[C@H](O)[C@H]2O)[C@@H](O)[C@H](O)[C@H]1O)c1ccc2c(c1)C(=O)c1ccccc1-2 (single isomer, unassigned) when tested with PBMC stands at 0

The observed Activity for O=C(NCCOCCO[C@H]1O[C@H](CO)[C@@H](O)[C@H](O)[C@H]1O)c1ccc2c(c1)C(=O)c1ccccc1-2 when tested with PBMC stands at 0

The observed Activity for O=C(OCCCO)c1cccc2c1-c1ccccc1C2=O when tested with PBMC stands at 22

The observed Activity for O=C(OCCCCO[C@@H]1O[C@H](CO[C@H]2O[C@H](CO)[C@@H](O)[C@H](O)[C@H]2O)[C@@H](O)[C@H](O)[C@H]1O)c1cccc2c1-c1ccccc1C2=O when tested with PBMC stands at 29

The observed Activity for O=C(NCCOCCO[C@@H]1O[C@H](CO)[C@@H](O)[C@H](O)[C@H]1O)c1ccc2c(c1)C(=O)c1ccccc1-2 when tested with PBMC stands at 0

The observed Activity for O=C(NCCOCCO[C@@H]1O[C@H](CO)[C@@H](O[C@H]2O[C@H](CO)[C@@H](O)[C@H](O)[C@H]2O)[C@H](O)[C@H]1O)c1ccc2c(c1)C(=O)c1ccccc1-2 when tested with PBMC stands at 0
